# pKb per record follows
biological target: P2Y purinoceptor 2 (Homo sapiens); experiment: Antagonist activity at human P2Y2R expressed in human 1321N1 cells assessed as inhibition of UTPgammaS-activated calcium-mobilization preincubated for 45 mins measured every 1.52 secs for 200 secs after the addition of UTPgammaS at 15 secs by fluo-4AM-based fluorescence assay; type: functional, cell-based
Number only, please.

Take a look at these entries with their results.
Cc1cc(C)n2c1C=C1C=CC(CCC(=O)NCCCCCC(=O)NCCNC(=O)CCNc3nc4c(s3)C=Cc3cc(Cl)ccc3C4c3cn(C)c(=O)[nH]c3=S)=[N+]1[B-]2(F)F (configuration not stated)
6.3
COCCNc1nc2c(s1)C=Cc1cc(Cl)ccc1C2c1cn(C)c(=O)[nH]c1=S (stereo in doubt; 20)
6.63
Cc1ccc2c(c1)C=Cc1cc(C)ccc1C2c1cn(Cc2nc(C(=O)O)cs2)c(=O)[nH]c1=S
6.43
CC(C)OCCNc1nc2c(s1)C=Cc1cc(Cl)ccc1C2c1cn(C)c(=O)[nH]c1=S (configuration not stated)
6.49
O=c1[nH]c(=S)c(C2c3ccccc3CCc3ccccc32)cn1[C@@H]1O[C@H](COP(=O)(O)OP(=O)(O)C(Cl)(Cl)P(=O)(O)O)[C@@H](O)[C@H]1O
6.59

Now let's try a different one.
pKb for P2Y purinoceptor 2 (Homo sapiens) with input COCCNc1nc2c(s1)C=Cc1cc(Cl)ccc1C2c1cn(C)c(=O)[nH]c1=S (stereo in doubt; 21) equals 5.82

* * *

target: P2Y purinoceptor 2 (Homo sapiens, UniProt P41231); assay: Antagonist activity at human P2Y2R expressed in human 1321N1 cells assessed as inhibition of UTPgammaS-activated calcium-mobilization preincubated for 45 mins measured every 1.52 secs for 200 secs after the addition of UTPgammaS at 15 secs by fluo-4AM-based fluorescence assay; type: functional, cell-based
Sequence (P41231 whole entry): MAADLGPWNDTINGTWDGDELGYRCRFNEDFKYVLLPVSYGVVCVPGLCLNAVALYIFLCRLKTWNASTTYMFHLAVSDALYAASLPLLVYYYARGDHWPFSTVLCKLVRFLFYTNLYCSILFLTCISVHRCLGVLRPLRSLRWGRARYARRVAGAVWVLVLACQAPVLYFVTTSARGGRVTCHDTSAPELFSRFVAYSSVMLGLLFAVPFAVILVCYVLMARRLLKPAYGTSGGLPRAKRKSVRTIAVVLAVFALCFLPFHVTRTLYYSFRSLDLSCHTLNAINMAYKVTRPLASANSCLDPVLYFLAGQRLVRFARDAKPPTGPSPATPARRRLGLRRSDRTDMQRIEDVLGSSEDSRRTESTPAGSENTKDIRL
Let's look at some compounds and their measured pKb.
The answer should be written as a number, with no unit following it.

Cc1nc2c(s1)C=Cc1cc(Cl)ccc1C2c1cn(C)c(=O)[nH]c1=S (stereo not drawn)
5.99
Cn1cc(C2c3ccc(Cl)cc3C=Cc3sc(N)nc32)c(=S)[nH]c1=O (stereo not drawn)
6.56

Now turn to the next compound.
Noted for CCOCCNc1nc2c(s1)C=Cc1cc(Cl)ccc1C2c1cn(C)c(=O)[nH]c1=S (racemic) : its pKb reads 6.73

* * *

Measured pKi, listed per entry for reference.
target: P2Y purinoceptor 2 (Homo sapiens, UniProt P41231); assay: Displacement of (E)-2-((5-(7-Chloro-2-((3-((2-(6-(3-(5,5-difluoro-7,9-dimethyl-5H-5-lambda4,6-lambda4-dipyrrolo[1,2-c:2,1-f ][1,3,2]diazaborinin-3-yl)-propanamido)hexanamido)ethyl)amino)-3-oxopropyl)amino)-4Hbenzo[5,6]cyclohepta[1,2-d]thiazol-4-yl)-2-oxo-4-thioxo-3,4-dihydropyrimidin-1(2H)-yl)methyl)-N-(1H-tetrazol-5-yl)thiazole-4-carboxamide from human N-terminal NLuc-tagged P2Y2R expressed in human 1321N1 cells incubated for 1 hr by furimazine-based NanoBRET assay
Quick note: pKi values are minus log10 of concentrations in mol/L.

As a guide, the following entries are already answered.
Cc1nc2c(s1)C=Cc1cc(Cl)ccc1C2c1cn(C)c(=O)[nH]c1=S (stereo not given)
5.81
Cc1ccc2c(c1)C=Cc1cc(C)ccc1C2c1cn(Cc2nc(C(=O)Nc3nnn[nH]3)cs2)c(=O)[nH]c1=S
6.89
Cc1cc(C)n2c1C=C1C=CC(CCC(=O)NCCCCCC(=O)NCCNC(=O)CCNc3nc4c(s3)C=Cc3cc(Cl)ccc3C4c3cn(C)c(=O)[nH]c3=S)=[N+]1[B-]2(F)F (stereo not given)
6.40
O=c1ccn([C@@H]2O[C@H](COP(=O)(O)OP(=O)(O)OP(=O)(O)S)[C@@H](O)[C@H]2O)c(=O)[nH]1 (stereo not given in full)
5.46

Continue with the molecule presented below.
Briefly, pKi measured for O=c1[nH]c(=S)c(C2c3ccccc3CCc3ccccc32)cn1[C@@H]1O[C@H](COP(=O)(O)OP(=O)(O)C(Cl)(Cl)P(=O)(O)O)[C@@H](O)[C@H]1O : 7.08
